molecular target: BTK(C481S)-GFP (Homo sapiens, UniProt Q06187+Q96SW2, C481S); construct: CHYSEL (cis-acting hydrolase element, 2A) remnant after GFP; mCherry is split off as a separate protein (C); expressed in transfected cells; host or cells: TMD8 cells, lentiviral transduction with pLenti6-BTK(C481S)-GFP-CHYSEL-mCherry; experiment: BTK(C481S)-GFP protein abundance flow cytometry assay in TMD8 cells; type: cell-based; conditions: TMD8 cells expressing BTK(C481S)-GFP; % protein remaining at maximum degradation
Sequence (Q06187 whole entry C481S): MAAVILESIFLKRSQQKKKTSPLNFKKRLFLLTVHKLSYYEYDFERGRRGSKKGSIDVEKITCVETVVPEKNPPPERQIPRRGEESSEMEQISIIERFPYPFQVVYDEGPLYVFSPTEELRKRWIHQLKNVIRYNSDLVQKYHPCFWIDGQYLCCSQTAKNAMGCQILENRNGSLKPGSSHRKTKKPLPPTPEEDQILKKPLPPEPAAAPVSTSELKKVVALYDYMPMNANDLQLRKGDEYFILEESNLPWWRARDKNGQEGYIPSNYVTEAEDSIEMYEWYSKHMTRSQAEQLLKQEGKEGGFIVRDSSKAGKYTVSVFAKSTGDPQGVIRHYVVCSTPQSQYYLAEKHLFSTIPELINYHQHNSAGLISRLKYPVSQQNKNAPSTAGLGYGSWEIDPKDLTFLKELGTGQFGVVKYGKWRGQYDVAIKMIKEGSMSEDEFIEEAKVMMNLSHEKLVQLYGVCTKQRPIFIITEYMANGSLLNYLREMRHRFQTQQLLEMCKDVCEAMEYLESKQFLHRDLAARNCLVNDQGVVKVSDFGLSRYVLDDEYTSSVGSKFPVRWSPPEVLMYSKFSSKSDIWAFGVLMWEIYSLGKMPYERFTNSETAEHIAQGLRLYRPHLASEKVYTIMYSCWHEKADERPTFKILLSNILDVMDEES
Sequence (Q96SW2 whole entry): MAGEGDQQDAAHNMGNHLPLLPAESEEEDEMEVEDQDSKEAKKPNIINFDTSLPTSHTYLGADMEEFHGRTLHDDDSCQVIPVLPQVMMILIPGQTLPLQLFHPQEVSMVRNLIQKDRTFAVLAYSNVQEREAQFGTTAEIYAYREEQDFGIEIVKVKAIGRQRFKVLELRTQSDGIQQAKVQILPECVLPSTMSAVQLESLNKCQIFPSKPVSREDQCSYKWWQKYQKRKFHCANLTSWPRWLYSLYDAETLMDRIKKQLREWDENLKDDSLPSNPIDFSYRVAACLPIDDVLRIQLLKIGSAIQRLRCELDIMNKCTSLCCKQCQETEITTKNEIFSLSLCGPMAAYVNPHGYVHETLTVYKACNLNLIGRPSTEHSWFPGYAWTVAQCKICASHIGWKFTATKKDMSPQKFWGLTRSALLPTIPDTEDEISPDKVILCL
Sequence (Q16531 whole entry partner): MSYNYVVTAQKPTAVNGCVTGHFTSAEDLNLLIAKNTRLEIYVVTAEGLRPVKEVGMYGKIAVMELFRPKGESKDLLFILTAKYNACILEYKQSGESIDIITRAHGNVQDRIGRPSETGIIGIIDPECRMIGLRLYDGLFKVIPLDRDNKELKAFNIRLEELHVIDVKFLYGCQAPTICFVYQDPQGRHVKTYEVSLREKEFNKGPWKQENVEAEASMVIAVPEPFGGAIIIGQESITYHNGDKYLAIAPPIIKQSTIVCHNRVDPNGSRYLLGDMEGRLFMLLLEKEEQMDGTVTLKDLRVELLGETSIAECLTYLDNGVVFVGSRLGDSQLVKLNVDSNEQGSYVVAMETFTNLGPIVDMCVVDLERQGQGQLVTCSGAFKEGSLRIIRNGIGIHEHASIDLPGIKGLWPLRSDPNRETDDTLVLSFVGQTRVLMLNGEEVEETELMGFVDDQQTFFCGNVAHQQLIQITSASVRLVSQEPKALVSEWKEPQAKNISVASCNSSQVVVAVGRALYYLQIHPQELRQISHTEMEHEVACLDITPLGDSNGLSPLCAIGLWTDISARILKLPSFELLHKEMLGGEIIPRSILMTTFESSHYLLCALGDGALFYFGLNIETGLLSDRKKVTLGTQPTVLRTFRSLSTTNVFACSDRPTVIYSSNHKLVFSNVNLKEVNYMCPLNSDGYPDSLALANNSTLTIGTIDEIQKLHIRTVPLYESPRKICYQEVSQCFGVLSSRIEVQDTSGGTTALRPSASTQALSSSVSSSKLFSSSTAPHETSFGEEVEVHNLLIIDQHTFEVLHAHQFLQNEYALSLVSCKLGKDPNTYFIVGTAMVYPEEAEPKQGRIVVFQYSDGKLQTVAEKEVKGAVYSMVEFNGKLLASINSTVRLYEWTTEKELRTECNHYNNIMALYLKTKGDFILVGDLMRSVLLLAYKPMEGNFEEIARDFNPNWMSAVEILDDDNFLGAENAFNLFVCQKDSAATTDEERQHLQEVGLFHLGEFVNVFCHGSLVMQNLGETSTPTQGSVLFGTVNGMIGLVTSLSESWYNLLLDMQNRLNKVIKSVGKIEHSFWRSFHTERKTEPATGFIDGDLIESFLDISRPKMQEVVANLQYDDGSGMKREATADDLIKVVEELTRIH
quantity_kind: BTK (C481S) Amax (%)

{"smiles": "Cc1ccc(C(=O)N2CCC3(CCN(Cc4ccc(-c5cc6c(-c7cc(F)cc(NC(=O)c8ccc(C(C)(C)O)cc8F)c7C)ncnc6[nH]5)cc4)CC3)CC2)cc1N1CCC(=O)NC1=O", "BTK (C481S) Amax (%)": 2.8}
{"smiles": "COc1ccc(C(=O)N2CCC(OC3CCN(Cc4ccc(-c5cc6c(-c7cc(F)cc(NC(=O)c8ccc(C(C)(C)O)cc8F)c7C)ncnc6[nH]5)cc4)CC3)CC2)cc1N1CCC(=O)NC1=O", "BTK (C481S) Amax (%)": 2.7}
{"smiles": "Cc1c(NC(=O)c2ccc(C(C)(C)O)cc2F)cc(F)cc1-c1ncnc2[nH]c(-c3ccc(CN4CCC5(CC4)CCN(C(=O)c4ccc(F)c(N6CCC(=O)NC6=O)c4)CC5)cc3)cc12", "BTK (C481S) Amax (%)": 2.8}
{"smiles": "COc1ccc(C(=O)N2CCC3(CC2)CCN(C(C)(C)Cc2ccc(-c4cc5c(-c6cc(F)cc(NC(=O)c7ccc(C(C)(C)O)cc7F)c6C)ncnc5[nH]4)cc2)CC3)cc1N1CCC(=O)NC1=O", "BTK (C481S) Amax (%)": 2.4}
{"smiles": "COc1ccc(C(=O)N2CCC(CN3CCC(Oc4ccc(-c5cc6c(-c7cc(F)cc(NC(=O)c8ccc(C(C)(C)O)cc8F)c7C)ncnc6[nH]5)cc4)CC3)CC2)cc1N1CCC(=O)NC1=O", "BTK (C481S) Amax (%)": 2.7}
{"smiles": "Cc1c(NC(=O)c2ccc(C(C)(C)O)cc2F)cc(F)cc1-c1ncnc2[nH]c(-c3ccc(CCN4CCC5(CC4)CCN(C(=O)c4ccc(F)c(N6CCC(=O)NC6=O)c4)CC5)cc3)cc12", "BTK (C481S) Amax (%)": 2.4}
{"smiles": "COc1ccc(C(=O)N2CCC(OC3CCN(CCc4ccc(-c5cc6c(-c7cc(F)cc(NC(=O)c8ccc(C(C)(C)O)cc8F)c7C)ncnc6[nH]5)cc4)CC3)CC2)cc1N1CCC(=O)NC1=O", "BTK (C481S) Amax (%)": 1.6}

a. Cc1c(NC(=O)c2ccc(C(C)(C)O)cc2F)cc(F)cc1-c1ncnc2[nH]c(-c3ccc(COC4CCN(CCC5CCN(C(=O)c6ccc(F)c(N7CCC(=O)NC7=O)c6)CC5)CC4)cc3)cc12
b. COc1ccc(C(=O)N2CCN(C(=O)N3CCN(Cc4ccc(-c5cc6c(-c7cc(F)cc(NC(=O)c8ccc(C(C)(C)O)cc8F)c7C)ncnc6[nH]5)cc4)CC3)CC2)cc1N1CCC(=O)NC1=O
c. Cc1ccc(C(=O)N(C)CCCCCNCc2ccc(-c3cc4c(-c5cc(F)cc(NC(=O)c6ccc(C(C)(C)O)cc6F)c5C)ncnc4[nH]3)cc2)cc1N1CCC(=O)NC1=O
Qu. Ascending by BTK (C481S) Amax, please. Hello, could you send the labels back in the order asked? Thank you.
Ans. a, c, b
(a: 2.1%, c: 3.1%, b: 4.5%)

* * *

biological target: BTK-GFP (Homo sapiens, UniProt Q06187+Q96SW2); construct: expressed in transfected cells; host or cells: HEK293A (Invitrogen R70507), lentiviral transduction with pLenti6-BTK-GFP-Ires-RFP, blasticidin selection; experiment: BTK-GFP protein abundance flow cytometry assay in HEK293A cells; type: cell-based; conditions: HEK293A BTK-GFP-iresRFP cells, 24 h, GFP signal by flow cytometry; concentration at which 50% maximal degradation was observed
quantity_kind: DC50 (nM)

Would you please look over these solved cases?
{"smiles": "COc1ccc(C(=O)N2CCN(CCN3CCN(Cc4ccc(-c5cc6c(-c7cc(F)cc(NC(=O)c8ccc(C(C)(C)O)cc8F)c7C)ncnc6[nH]5)cc4)CC3)CC2)cc1N1CCC(=O)NC1=O", "data_value": 4.2}
{"smiles": "COc1ccc(C(=O)N2CCN(CCCCNCc3ccc(-c4cc5c(-c6cc(F)cc(NC(=O)c7ccc(C(C)(C)O)cc7F)c6C)ncnc5[nH]4)cc3)CC2)cc1N1CCC(=O)NC1=O", "data_value": 53.2}
{"smiles": "COc1ccc(C(=O)N2CCC(OCCN3CCC(Oc4ccc(-c5cc6c(-c7cc(F)cc(NC(=O)c8ccc(C(C)(C)O)cc8F)c7C)ncnc6[nH]5)cc4)CC3)CC2)cc1N1CCC(=O)NC1=O", "data_value": 0.9}
{"smiles": "Cc1c(NC(=O)c2ccc(C(C)(C)O)cc2F)cc(F)cc1-c1ncnc2[nH]c(-c3ccc(CN4CCC5(CCN(CCCNC(=O)c6ccc(Cl)c(N7CCC(=O)NC7=O)c6)CC5)CC4)cc3)cc12", "data_value": 14.4}
{"smiles": "Cc1c(NC(=O)c2ccc(C(C)(C)O)cc2F)cc(F)cc1-c1ncnc2[nH]c(-c3ccc(CCN4CCC5(CC4)CCN(C(=O)c4ccc(F)c(N6CCC(=O)NC6=O)c4)CC5)cc3)cc12", "data_value": 2.2}

I. COc1ccc(C(=O)N2CCC3(CCN(Cc4ccc(-c5cc6c(-c7cc(F)cc(NC(=O)c8ccc(C(C)(C)O)cc8F)c7C)ncnc6[nH]5)cc4)CC3)CC2)cc1N1CCC(=O)NC1=O
II. Cc1c(NC(=O)c2ccc(C(C)(C)O)cc2F)cc(F)cc1-c1ncnc2[nH]c(-c3ccc(CN4CCC5(CC4)CN(CCNC(=O)c4ccc(Cl)c(N6CCC(=O)NC6=O)c4)CCO5)cc3)cc12
Qu. // which entry has the larger DC50 value, I or II ? Which one? Tell me its label.
Ans. II
(II: 11.3 nM, I: 2.1 nM)

I. COc1ccc(C(=O)NCCN2CC3(CCN(Cc4ccc(-c5cc6c(-c7cc(F)cc(NC(=O)c8ccc(C(C)(C)O)cc8F)c7C)ncnc6[nH]5)cc4)CC3)C2)cc1N1CCC(=O)NC1=O
II. COc1ccc(C(=O)N2CCC(CCN3CCC(COc4ccc(-c5cc6c(-c7cc(F)cc(NC(=O)c8ccc(C(C)(C)O)cc8F)c7C)ncnc6[nH]5)cc4)CC3)CC2)cc1N1CCC(=O)NC1=O
Qu. DC50 comparison. Which is larger, I or II ? Write down the label of the entry you select.
Ans. I
(I: 2580 nM, II: 1 nM)

* * *

Biological target: BTK(C481S)-GFP (Homo sapiens, UniProt Q06187+Q96SW2, C481S)
Construct: CHYSEL (cis-acting hydrolase element, 2A) remnant after GFP; mCherry is split off as a separate protein (C); expressed in transfected cells; host or cells: TMD8 cells, lentiviral transduction with pLenti6-BTK(C481S)-GFP-CHYSEL-mCherry
Assay: BTK(C481S)-GFP protein abundance flow cytometry assay in TMD8 cells
Format: cell-based
Conditions: TMD8 cells expressing BTK(C481S)-GFP; % protein remaining at maximum degradation
Protocol: Compounds of the invention were tested in the following cellular assays. […] Degradation of BTK(C481S) was measured in TMD8 cells expressing BTK(C481S)-GFP and mCherry from a stably integrated second generation bicistronic BTK(C481S)-GFP-CHYSEL-mCherry construct. Reduction of the […] measured by flow cytometry served as readout for BTK(C481S) degradation after degrader treatment. […]
quantity_kind: BTK (C481S) Amax (%)

Here are 4 molecules together with their reported answers.
{"smiles": "COc1ccc(C(=O)N2CCC3(CCN(CCc4ccc(-c5cc6c(-c7cc(F)cc(NC(=O)c8ccc(C(C)(C)O)cc8F)c7C)ncnc6[nH]5)cc4)CC3)CC2)cc1N1CCC(=O)NC1=O", "data_value": 3.0}
{"smiles": "Cc1ccc(C(=O)N2CCC3(CCN(CCc4ccc(-c5cc6c(-c7cc(F)cc(NC(=O)c8ccc(C(C)(C)O)cc8F)c7C)ncnc6[nH]5)cc4)CC3)CC2)cc1N1CCC(=O)NC1=O", "data_value": 2.5}
{"smiles": "Cc1c(NC(=O)c2ccc(C(C)(C)O)cc2F)cc(F)cc1-c1ncnc2[nH]c(-c3ccc(CCN4CCC5(CC4)CCN(C(=O)c4cccc(N6CCC(=O)NC6=O)c4)CC5)cc3)cc12", "data_value": 2.9}
{"smiles": "COc1ccc(C(=O)N2CCN(CCCCNCc3ccc(-c4cc5c(-c6cc(F)cc(NC(=O)c7ccc(C(C)(C)O)cc7F)c6C)ncnc5[nH]4)cc3)CC2)cc1N1CCC(=O)NC1=O", "data_value": 2.9}

1. CCOc1ccc(C(=O)N2CCC3(CCN(Cc4ccc(-c5cc6c(-c7cc(F)cc(NC(=O)c8ccc(C(C)(C)O)cc8F)c7C)ncnc6[nH]5)cc4)CC3)CC2)cc1N1CCC(=O)NC1=O
2. COc1ccc(C(=O)N2CCC3(CCN(Cc4ccc(-c5cc6c(-c7cc(F)cc(NC(=O)c8ccc(C(C)(C)O)cc8F)c7C)ncnc6[nH]5)cc4)CC3)CC2)cc1N1CCC(=O)NC1=O
Qu. Of 1 and 2 , which carries the smaller reported BTK (C481S) Amax figure? In your reply, give the label of the chosen option.
Ans. 1
